# EXPERIMENTAL_SYSTEM: T1, HCoV-NL63 spike antigens (bead panel) (HCoV-NL63, UniProt Q6Q1S2 19-1296)
# T1 sequence: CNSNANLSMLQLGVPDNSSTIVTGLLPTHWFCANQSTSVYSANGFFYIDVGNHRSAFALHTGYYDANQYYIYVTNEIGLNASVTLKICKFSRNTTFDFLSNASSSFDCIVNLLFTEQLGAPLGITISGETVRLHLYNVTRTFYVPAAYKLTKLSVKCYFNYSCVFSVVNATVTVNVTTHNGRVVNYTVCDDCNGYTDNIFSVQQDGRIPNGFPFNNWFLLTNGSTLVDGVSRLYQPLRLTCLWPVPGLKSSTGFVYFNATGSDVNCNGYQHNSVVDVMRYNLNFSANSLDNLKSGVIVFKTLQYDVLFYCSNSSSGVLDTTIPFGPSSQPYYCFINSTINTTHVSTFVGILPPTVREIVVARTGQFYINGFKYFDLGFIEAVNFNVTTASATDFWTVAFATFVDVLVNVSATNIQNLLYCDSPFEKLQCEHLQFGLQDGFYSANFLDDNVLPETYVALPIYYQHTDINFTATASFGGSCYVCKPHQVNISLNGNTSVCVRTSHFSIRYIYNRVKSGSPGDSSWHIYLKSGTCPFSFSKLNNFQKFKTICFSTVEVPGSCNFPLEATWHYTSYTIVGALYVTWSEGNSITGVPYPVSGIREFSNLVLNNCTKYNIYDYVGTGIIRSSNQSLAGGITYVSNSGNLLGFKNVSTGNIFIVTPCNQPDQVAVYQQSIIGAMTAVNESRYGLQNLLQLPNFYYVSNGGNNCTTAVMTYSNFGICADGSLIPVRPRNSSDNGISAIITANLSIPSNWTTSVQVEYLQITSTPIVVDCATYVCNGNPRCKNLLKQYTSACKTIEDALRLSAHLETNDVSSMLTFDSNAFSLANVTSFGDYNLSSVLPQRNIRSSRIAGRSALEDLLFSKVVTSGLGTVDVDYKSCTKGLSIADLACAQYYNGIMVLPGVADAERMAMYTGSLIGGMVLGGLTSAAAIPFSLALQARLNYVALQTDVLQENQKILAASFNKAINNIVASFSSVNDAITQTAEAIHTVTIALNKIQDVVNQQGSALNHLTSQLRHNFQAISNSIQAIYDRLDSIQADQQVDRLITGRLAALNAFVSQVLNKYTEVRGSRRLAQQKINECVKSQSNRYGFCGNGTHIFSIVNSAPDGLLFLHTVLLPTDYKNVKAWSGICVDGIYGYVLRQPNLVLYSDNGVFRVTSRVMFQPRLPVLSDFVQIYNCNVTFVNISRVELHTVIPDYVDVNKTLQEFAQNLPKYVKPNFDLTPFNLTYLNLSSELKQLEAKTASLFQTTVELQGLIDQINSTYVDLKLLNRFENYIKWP
# ASSAY_NOTES: multiplex bead assay
METRIC: binding result

INSERT INTO assay_data (binder, metric, recorded_result) VALUES
  ('COV_2143 (antibody, V domains shown, human IgG1) VH: EVQLVESGGGVVQPGRSLRLSCAASGFTFNSFAMLWVRQAPGKGLEWVALFSYDGSNKYYADSVKGRFTISRDNSKNTLYLQMNNLRAVDTAVYYCARASPYDINGYYLHRIAFDIWGQGTMVTVSS VL: QSVLMQPPSVSGAPGQRVTISCTGSSSNIGAGYDVHWYQQLPGTAPKLLMYGNSNRPSGVPDRFSGSKSGTSASLAITGLQAEDEADYYCQSYDSGLSGWVFGGGTKLTVLG', 'binding result', 'no binding'),
  ('COV_3053 (antibody, V domains shown, human IgG1) VH: EVQLVESGGGLVQPGRSLRLSCTASGFTLGDYAMTWVRQAPGKGLEWLGIIRNKRYGETKQYAASVKGRFTFSRDDSKGIGYLQRLSLKIEDTGVYYCTREHIVRDDAFDVWGQGTTVTVSS VL: DIVMTQSPDSLAVSLGERATINCKSSQSVLYSSNNKNYIAWYQQRPGQPPKLLIYWTSTRASGVPDRFSGSGSGTDFALTISSLQAEDVAVYYCQQYYTIPRTFGQGTKVEIK', 'binding result', 'no binding');
